test-system: SpLsb1
method: SPOT peptide array binding signal intensity (averaged, normalized) (arbitrary units (background-subtracted, floor 0; scale differs between SH3 domains)); higher = stronger binding of the SH3 domain to the peptide
Decision: SPOT peptide array binding signal intensity compared against 40; not below it gives met, below it gives not met.

Q: Could you tell me if the measured SPOT peptide array binding signal intensity of NFFRKKLGIPRKLKR reaches 40 or more?
Ans: not met

Q: Could you tell me if the measured SPOT peptide array binding signal intensity of GQYRRTIVIPRRFFT reaches 40 or more?
Ans: not met

Q: Could you tell me if the measured SPOT peptide array binding signal intensity of RPKRRAPPPVPKKPS reaches 40 or more?
Ans: met

Q: Could you tell me if the measured SPOT peptide array binding signal intensity of QLMKNLPKIPLLNDI reaches 40 or more?
Ans: not met

Q: Could you tell me if the measured SPOT peptide array binding signal intensity of MTKTPETSPPKRPMG reaches 40 or more?
Ans: not met

Q: Could you tell me if the measured SPOT peptide array binding signal intensity of GSKSGPPPRPKKPST reaches 40 or more?
Ans: not met

Q: Could you tell me if the measured SPOT peptide array binding signal intensity of KNPRRQLQIPRQQPS reaches 40 or more?
Ans: met

Q: Could you tell me if the measured SPOT peptide array binding signal intensity of KNRKNLPTIPIRLSG reaches 40 or more?
Ans: met

Q: Could you tell me if the measured SPOT peptide array binding signal intensity of IVNKPLPPLPVAGSS reaches 40 or more?
Ans: met

Q: Could you tell me if the measured SPOT peptide array binding signal intensity of ALFRLSFFFPLDPAY reaches 40 or more?
Ans: not met

Q: Could you tell me if the measured SPOT peptide array binding signal intensity of SSAAPPPPPRRATPE reaches 40 or more?
Ans: met

Q: Could you tell me if the measured SPOT peptide array binding signal intensity of QPWTDQFEKLEKEVS reaches 40 or more?
Ans: not met

Q: Could you tell me if the measured SPOT peptide array binding signal intensity of PKRRAPPPVPKKPSS reaches 40 or more?
Ans: met

Q: Could you tell me if the measured SPOT peptide array binding signal intensity of VTHRLRISIPGITGR reaches 40 or more?
Ans: not met

Q: Could you tell me if the measured SPOT peptide array binding signal intensity of AHFQPQRTAPKPPIS reaches 40 or more?
Ans: not met

Q: Could you tell me if the measured SPOT peptide array binding signal intensity of LKPPIGRPPKFPKSP reaches 40 or more?
Ans: not met

Q: Could you tell me if the measured SPOT peptide array binding signal intensity of ANNQGPPNLPARDKS reaches 40 or more?
Ans: met

Q: Could you tell me if the measured SPOT peptide array binding signal intensity of ALRRRLPVTRSKINW reaches 40 or more?
Ans: not met

Q: Could you tell me if the measured SPOT peptide array binding signal intensity of NFLRLLIGLPSQNEL reaches 40 or more?
Ans: not met

Q: Could you tell me if the measured SPOT peptide array binding signal intensity of RPVPRRPSQPLNTLS reaches 40 or more?
Ans: met

Q: Could you tell me if the measured SPOT peptide array binding signal intensity of PPLPRAPPVPPATFE reaches 40 or more?
Ans: not met

Q: Could you tell me if the measured SPOT peptide array binding signal intensity of LPMNIQPDLPPRKIM reaches 40 or more?
Ans: met

Q: Could you tell me if the measured SPOT peptide array binding signal intensity of ISPPASPPPEFDFSK reaches 40 or more?
Ans: not met

Q: Could you tell me if the measured SPOT peptide array binding signal intensity of RKRRTHLRLPLIRSN reaches 40 or more?
Ans: not met

Q: Could you tell me if the measured SPOT peptide array binding signal intensity of QDKEGIPPDQQRLIF reaches 40 or more?
Ans: not met

Q: Could you tell me if the measured SPOT peptide array binding signal intensity of LEFRAILFIPKRAPF reaches 40 or more?
Ans: not met

Q: Could you tell me if the measured SPOT peptide array binding signal intensity of EREKALPPIPFTTTL reaches 40 or more?
Ans: not met
